measured.on: γ-secretase (Homo sapiens)
Construct: endogenous in cells; host or cells: SKNBE2 human neuroblastoma cells (carrying hAPP 695 wild type as substrate)
assay.method.text: Screening for γ-secretase-modulating activity: Aβtotal in supernatant of SKNBE2 cells carrying hAPP 695 wild type (Alphalisa)
Type: cell-based
measurement.conditions: SKNBE2 human neuroblastoma cells carrying hAPP 695 wild type, overnight incubation, Aβtotal in cell supernatant
readout.kind: IC50 (µM)
Record the value in µM, omitting the unit from your answer.

Past entries and their recorded results:
| molecule | measured.on | units.of.measure | reported.value |
| --- | --- | --- | --- |
| Cc1cn(-c2ccc3n(c2=O)CC(C)N(C(C)c2cn(C)c4cc(F)c(Cl)cc24)C3=O)cn1 (single isomer, unassigned) [compound 190] | γ-secretase (Homo sapiens) | µM | 3.31 |
| CCn1cc(C(C)N2C(=O)c3ccc(-n4cnc(C)c4)c(=O)n3C[C@H]2C)c2ccc(C(F)(F)F)cc21 (single isomer, unassigned) [compound 235] | γ-secretase (Homo sapiens) | µM | 6 |

// next entry
Which IC50 is reported with γ-secretase (Homo sapiens) for this entry: CCn1cc(C(C)N2C(=O)c3ccc(-n4cnc(C)c4)c(=O)n3CC2C)c2cc(Cl)c(F)cc21 (single isomer, unassigned) [compound 192] ?
1.82

====

measured.on: γ-secretase (Homo sapiens)
Construct: endogenous in cells; host or cells: SKNBE2 human neuroblastoma cells (carrying hAPP 695 wild type as substrate)
assay.method.text: Screening for γ-secretase-modulating activity: Aβtotal in supernatant of SKNBE2 cells carrying hAPP 695 wild type (Alphalisa)
Assay type: cell-based
measurement.conditions: SKNBE2 human neuroblastoma cells carrying hAPP 695 wild type, overnight incubation, Aβtotal in cell supernatant
readout.kind: IC50

| compound | reported.value |
| --- | --- |
| Cc1cn(-c2ccc3n(c2=O)C[C@@H](C)N(Cc2cn(C)c4ccc(C5CC5)cc24)C3=O)cn1 | 7 µM |
| Cc1cn(-c2ccc3n(c2=O)C[C@@H](C)N(Cc2c[nH]c4ccc(Cl)cc24)C3=O)cn1 | > 10 µM |
| Cc1cn(-c2ccc3n(c2=O)CCN(C(C)Cc2cc(C(F)(F)F)cc(C(F)(F)F)c2)C3=O)cn1 (stereo not shown) | > 10 µM |
| Cc1cn(-c2ccc3n(c2=O)CCN(Cc2cccc(Cl)c2Cl)C3=O)cn1 | > 10 µM |

Need IC50 of Cc1cn(-c2ccc3n(c2=O)C[C@@H](C)N(C(C)c2cn(C4CC4)c4cc(F)c(Cl)cc24)C3=O)cn1 (single isomer, unassigned) , thanks.
1 µM

Quick check: IC50 of Cc1cn(-c2ccc3n(c2=O)CCN(Cc2cccc(-c4ccccc4)c2)C3=O)c(C)n1 ?
> 10 µM

Entry under review: Cc1cn(-c2ccc3n(c2=O)CCN(Cc2cccc(N4CCCCC4)c2C)C3=O)cn1 . Reported IC50?
> 10 µM

====

Each entry below carries its reported melting point.
Counter-ions that a name gives are not always drawn.
Entry rule: numbers only, all in °C.

Examples with answers:
| molecule | melting point (°C) |
| --- | --- |
| Cc1cn(-c2ccc3n(c2=O)CCN(Cc2cccc(C(F)(F)F)c2)C3=O)cn1 | 183.4 |
| Cc1cn(-c2ccc3n(c2=O)CCN(Cc2cccc(Cl)c2Cl)C3=O)cn1 | 224.9 |
| Cc1cn(-c2ccc3n(c2=O)CCN(C2CCCc4c2cccc4C(F)(F)F)C3=O)cn1 (stereo not drawn) | 257.3 |
| CCn1cc(C(C)N2C(=O)c3ccc(-n4cnc(C)c4)c(=O)n3CC2C)c2cc(Cl)cc(F)c21 (single isomer, unassigned) | 194 |
| Cc1cn(-c2ccc3n(c2=O)C[C@@H](C)N(CCc2cc(C(F)(F)F)ccc2F)C3=O)cn1 | 148 |

Entry Cc1cn(-c2ccc3n(c2=O)C[C@@H](C)N(Cc2cc(C(F)(F)F)ccc2C)C3=O)cn1 (as salt: HCl) : reported melting point = ?
208.3

Please give the measured melting point for this molecule: Cc1ncn(-c2ccc3n(c2=O)CCN(Cc2cccc(C(F)(F)F)c2)C3=O)n1
194.9

Item Cc1cn(-c2ccc3n(c2=O)CCN(C(C)Cc2cc(C(F)(F)F)cc(C(F)(F)F)c2)C3=O)cn1 (stereo not drawn) has what recorded melting point?
182.3

Which value of melting point has been reported for Cc1cn(-c2ccc3n(c2=O)C[C@@H](C)N(Cc2ccc4c(c2)OC(F)(F)O4)C3=O)cn1 in the records?
136.1

====

measured.on: γ-secretase (Homo sapiens)
Construct: endogenous in cells; host or cells: SKNBE2 human neuroblastoma cells (carrying hAPP 695 wild type as substrate)
assay.method.text: Screening for γ-secretase-modulating activity: Aβ42 in supernatant of SKNBE2 cells carrying hAPP 695 wild type (Alphalisa)
Type: cell-based
measurement.conditions: SKNBE2 human neuroblastoma cells carrying hAPP 695 wild type, overnight incubation, Aβ42 in cell supernatant
The following molecules are listed with their measured pIC50 values.
Quick note: pIC50 means taking -log10 of the concentration in moles per liter.

| molecule | measured.on | readout.kind | reported.value |
| --- | --- | --- | --- |
| Cc1cn(-c2ccc3n(c2=O)CCN(Cc2ccccc2)C3=O)cn1 | γ-secretase (Homo sapiens) | pIC50 | 5.17 |

Give its pIC50 value. Item: Cc1cn(-c2ccc3n(c2=O)CCCN(Cc2ccc(Cl)c(Cl)c2)C3=O)cn1
6.42

Could you tell me which pIC50 is on file for Cc1cn(-c2ccc3n(c2=O)CC(C)N(C(C)c2c[nH]c4cc(F)c(Cl)cc24)C3=O)cn1 (single isomer, unassigned) [compound 187] ?
6.72

====

# pIC50 values compiled below
measured.on: γ-secretase (Homo sapiens, UniProt P49768)
Construct: endogenous in cells; host or cells: SKNBE2 human neuroblastoma cells (carrying hAPP 695 wild type as substrate)
assay.method.text: Screening for γ-secretase-modulating activity: Aβ42 in supernatant of SKNBE2 cells carrying hAPP 695 wild type (Alphalisa)
Format: cell-based
measurement.conditions: SKNBE2 human neuroblastoma cells carrying hAPP 695 wild type, overnight incubation, Aβ42 in cell supernatant
Reminder that pIC50 means the negative base-10 logarithm of the concentration expressed in mol/L.

Reference set, count: 2
| compound | readout.kind | reported.value |
| --- | --- | --- |
| Cc1cn(-c2ccc3n(c2=O)CCN(C(C)c2cccc(Cl)c2Cl)C3=O)cn1 (single isomer, unassigned) [10b] | pIC50 | 5.18 |
| CCC1Cn2c(ccc(-n3cnc(C)c3)c2=O)C(=O)N1Cc1cc(C(F)(F)F)cc(C(F)(F)F)c1.Cl (stereo not shown) | pIC50 | 6.96 |

Recorded pIC50 for Cc1cn(-c2ccc3n(c2=O)C[C@@H](C)N(Cc2cccc(Cl)c2)C3=O)cn1 , please?
5.96

====

Where a name gives a salt, the structure may show the parent alone.
readout.kind: melting point (°C)
Write the number in °C without appending the unit.

Item Cc1cn(-c2ccc3n(c2=O)CC(C)N(C(C)c2cc(C(F)(F)F)cc(C(F)(F)F)c2)C3=O)cn1.Cl (single isomer, unassigned) [compound 111] has what recorded melting point?
147.3

Which melting point is reported for this compound? CCOc1cc(C(C)N2C(=O)c3ccc(-n4cnc(C)c4)c(=O)n3C[C@H]2C)cc(C(F)(F)F)c1 (single isomer, unassigned) (as salt: HCl) [compound 144]
194.4

====

Each entry below carries its recorded melting point.
Structures can show the parent of a compound that is named as a salt.
Kindly provide the numeric value in °C only, without the unit symbol.

Field: example entries. Status: answers known.
| compound | melting point, °C |
| --- | --- |
| Cc1cncn1-c1ccc2n(c1=O)CCN(Cc1ccccc1)C2=O | 146.5 |
| Cc1cn(-c2ccc3n(c2=O)CCN(Cc2cn(C)c4c(Cl)cc(Cl)cc24)C3=O)cn1 | 230 |
| C[C@@H]1Cn2c(ccc(-n3cnc(Cl)c3)c2=O)C(=O)N1Cc1cc(C(F)(F)F)cc(C(F)(F)F)c1 | 157.9 |
| Cc1cn(-c2ccc3n(c2=O)C[C@@H](C)N(Cc2cccc(Cl)c2)C3=O)cn1 (as salt: HCl) | 184.6 |

So what does the record say about melting point for Cc1cn(-c2ccc3n(c2=O)C[C@@H](C)N(Cc2ccc(Cl)c(Cl)c2)C3=O)cn1 ?
185

Which melting point value is on record for Cc1cn(-c2ccc3n(c2=O)C[C@@H](C)N(Cc2cn(C)c4ccc(OC(F)(F)F)cc24)C3=O)cn1 (as salt: HCl) ?
190

Request the reported melting point associated with Cc1cn(-c2ccc3n(c2=O)CC(C)N(C(C)c2cn(C)c4cc(F)c(Cl)cc24)C3=O)cn1 (single isomer, unassigned) [compound 189]
263

====

measured.on: γ-secretase (Homo sapiens)
Construct: endogenous in cells; host or cells: SKNBE2 human neuroblastoma cells (carrying hAPP 695 wild type as substrate)
assay.method.text: Screening for γ-secretase-modulating activity: Aβtotal in supernatant of SKNBE2 cells carrying hAPP 695 wild type (Alphalisa)
Assay type: cell-based
measurement.conditions: SKNBE2 human neuroblastoma cells carrying hAPP 695 wild type, overnight incubation, Aβtotal in cell supernatant
pIC50: −log10 of the molar value.
# key: entry, value: pIC50

Below, each entry is followed by its recorded pIC50 result.
| compound | pIC50 |
| --- | --- |
| Cc1cn(-c2ccc3n(c2=O)C[C@@H](C)N(Cc2cn(C)c4c(F)cc(C(F)(F)F)cc24)C3=O)cn1 | 5.40 |
| COc1cccc(CN2CCn3c(ccc(-n4cnc(C)n4)c3=O)C2=O)c1 | < 5.00 |
| Cc1cn(-c2ccc3n(c2=O)CCN(Cc2cc(C(F)(F)F)cc(C(F)(F)F)c2)C3=O)cn1 | < 5.00 |
| Cc1cn(-c2ccc3n(c2=O)C[C@@H](C)N(CC2(c4ccccc4C)CC2)C3=O)cn1 | < 5.00 |
| Cc1cn(-c2ccc3n(c2=O)C[C@@H](C)N(Cc2ccc4c(c2)OC(F)(F)O4)C3=O)cn1 | < 5.00 |
| Cc1cn(-c2ccc3n(c2=O)CC(C)N(Cc2c(C)n(C)c4ccc(C(F)(F)F)cc24)C3=O)cn1 (centres unmarked) | 5.34 |
| COc1cccc(CN2CCn3c(ccc(-n4cnc(C)c4)c3=O)C2=O)c1 | < 5.00 |

Now for the compound whose pIC50 we want.
Fill in the blank: the reported pIC50 of CCn1cc(CN2C(=O)c3ccc(-n4cnc(C)c4)c(=O)n3C[C@H]2C)c2cc(C)ccc21 is ____.
< 5.00
